Values from patent US20240343803A1

This listing pairs binders with measured % IC50 to parental Ab.
Target: T1, human PVRIG-mFc protein (Acro, PVG-H5253) (human, UniProt Q6DKI7 41-171, limits assumed)
T1 construct: extracellular domain; Bought protein; also called PVRIG-ECD-mFc; not shown: mouse Fc tag of the bought protein
T1 sequence (looked up): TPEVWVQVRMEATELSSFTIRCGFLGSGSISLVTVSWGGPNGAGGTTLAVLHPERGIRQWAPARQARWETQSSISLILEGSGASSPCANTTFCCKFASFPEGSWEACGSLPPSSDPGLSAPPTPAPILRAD
Assay: FACS blocking of PVRIG-mFc binding to CHO-K1-CD112 cells; competitor CD112
Answer format reminder: number followed by unit.

Form field: reported % IC50 to parental Ab of PVRIG-A118-H3 (Fc fusion, VHH-human IgG1 Fc format is stated for the parental VHH antibodies; not restated for the humanized variants; also called A118.VH3; not shown: human IgG1 hinge-CH2-CH3 (Fc)) EVQLVESGGGLVQPGGSLRLSCAASETYFDLYVMGWYRQAPGKDRELVATITYTGSIKYVDSVKGRFTISRGDAKNSLYLQMNSLRAEDTAVYYCNADPSGLGRKVYWGQGTMVTVSS
104%

Form field: reported % IC50 to parental Ab of PVRIG-A118-H7 (Fc fusion, VHH-human IgG1 Fc format is stated for the parental VHH antibodies; not restated for the humanized variants; also called A118.VH7; not shown: human IgG1 hinge-CH2-CH3 (Fc)) EVQLVESGGGLVQPGGSLRLSCAASETYFDLYVMGWYRQAPGKDRELVATITYTGSIKYVDSVKGRFTISRGDAKNSLYLQMNSLRAEDTAVYFCNADPSGLGRKVYWGQGTMVTVSS
102%

Form field: reported % IC50 to parental Ab of PVRIG-A105-H3a (Fc fusion, VHH-human IgG1 Fc format is stated for the parental VHH antibodies; not restated for the humanized variants; also called A105.VH3a; not shown: human IgG1 hinge-CH2-CH3 (Fc)) EVQLVESGGGLVQPGGSLRLSCAASGRTFDRHTMTWFRQAPGKEREFVATASRIPGDTYYVDSVKGRFTISRDNAKNSVYLQMNSLRAEDTAVYYCAATSAYSSEVDSYEKGSWYDNWGQGTMVTVSS
2930%

Form field: reported % IC50 to parental Ab of PVRIG-A118-H5 (Fc fusion, VHH-human IgG1 Fc format is stated for the parental VHH antibodies; not restated for the humanized variants; also called A118.VH5; not shown: human IgG1 hinge-CH2-CH3 (Fc)) EVQLVESGGGLVQPGGSLRLSCAASETYFDLYVMGWYRQAPGKDRELVATITYTGSIKYVDSVKGRFTISRGDAKNSVYLQMNSLRAEDTAVYYCNADPSGLGRKVYWGQGTMVTVSS
102%
